Origin of the recorded values: patent US12552694B2

Assay: Example 1: capacity of additives to bind dissolved La and Ce (ICP-OES)
Format: physicochemical
Kind request: treat 8 as inclusive, so pH at 8 or higher is class 1, anything lower is class 0.

[Na+].[OH-] [Sodium hydroxide, sodium hydroxide]
class 1
O.O=C([O-])C(=O)[O-].[K+].[K+] [Potassium oxalate (monohydrate), potassium oxalate (monohydrate)]
class 0
O=C([O-])C(O)C(O)C(=O)[O-].[Na+].[Na+] (centres unmarked) [Sodium tartrate, sodium tartrate]
class 0
O=C([O-])[O-].[Ca+2] [Calcium carbonate, calcium carbonate]
class 0
[O]=[Mg] [Magnesium oxide, magnesium oxide]
class 0

Exercise: Determine whether measured pH meets or exceeds 8 for [Ca+2].[OH-].[OH-] [Calcium hydroxide, calcium hydroxide]
Solution: class 1

Exercise: Item C=CC(=O)[O-].[Na+] [Sodium acrylate, sodium acrylate] with pH of 8 or above?
Solution: class 0
